Test system: MS2 coat protein
Assay: apparent KD of MS2 coat protein; higher = weaker reporter binding
Details: Eterna round: R107; input ligand: arginine 13.2 mM
Kind request: treat 0.03 µM as inclusive, so apparent KD of MS2 coat protein at 0.03 µM or higher is MET, anything lower is NOT MET.

**Q:** Tell me whether apparent KD of MS2 coat protein is at least 0.03 µM here: AGUCUUAAUGGAAGGAGCGCAGUCAUAACAUGAGGAUCACCCAUGUCGAGGUGAGGGUCAUUGCAGGUAGGUCGCCAUACUAGAA [Same State - Arginine B (Freestyle 1)]
**A:** MET

**Q:** Tell me whether apparent KD of MS2 coat protein is at least 0.03 µM here: ACAUGAGGAUCACCCAUGUGCAUCACCCGACGAGGACCGGUACGGCCGCCACUCGGGUAUAUAUUUGCAUCGGGUGAUUUUACGU [#25 Tryptophan A Same State]
**A:** NOT MET

**Q:** Tell me whether apparent KD of MS2 coat protein is at least 0.03 µM here: AGAGAUGAACAUGAGGAUCACCCAUGUAAACGAGGACCGGUACGGCCGCCACUCGUGGGUGUAAUAGAAUAAUAAGAGAAUAAUA [Turkey 1]
**A:** NOT MET

**Q:** Tell me whether apparent KD of MS2 coat protein is at least 0.03 µM here: UCUGGGUGCGCAAGGACCUGGAGUUGCGAUACCAGCACGGUAACGUGCCCUUGGCAGCGCACAUGAGGAUCACCCAUGUGGUGUU [#1 Exclusion - Theophylline A Attempt #18 (HarryS)]
**A:** MET

**Q:** Tell me whether apparent KD of MS2 coat protein is at least 0.03 µM here: GUAUGGAAACAUACUAGGGUAUCGUGAGAUACCAGUACAGAAAUGUACCCUUGGCAGCUCGCGCAUACAUGAGGAUCACCCAUGU [Ex Theophylline A 9]
**A:** NOT MET

New cases:
**Q:** Tell me whether apparent KD of MS2 coat protein is at least 0.03 µM here: AGAUUCGACACGGCCGCCACUUUCAGUGGCUGGUCACAUGGUGCACAUGAGGAUCACCCAUGUGGAAGGACCGGGUGUUGAGUCU [XTryp B #25]
**A:** NOT MET

**Q:** Tell me whether apparent KD of MS2 coat protein is at least 0.03 µM here: UGAUGGAACGGAAGGAGCGUGUAAGAACAAGAACAUGAGGAUCACCCAUGUAUUAAUUUAACACAGGUAGGUCGCCGAGUUAUUG [11.F]
**A:** NOT MET

**Q:** Tell me whether apparent KD of MS2 coat protein is at least 0.03 µM here: AGACAUGAGGAUCACCCAUGUAGUACGGAUACCAGAUCCAGAUGCGUCCCUUGGCAGCUGUAGUACAGCGUUACGUCGCUCAUAG [Exclusion - Theophylline A (Freestyle 26)]
**A:** NOT MET

**Q:** Tell me whether apparent KD of MS2 coat protein is at least 0.03 µM here: ACAUGAGGAUCACCCAUGUUCCUCUUUGAUACCAGUGAGUUGUUUCGCCCUUGGCAGCGAGUGUUUGUUUUUUUGUUUUGUUUGG [6.S]
**A:** MET

**Q:** Tell me whether apparent KD of MS2 coat protein is at least 0.03 µM here: GGUUGGUUUAUAUAUAGAUUGAUUACUGAAGGAGCGGGAAAUAACCCAGGUAGGUCGCAGAGAUCCACAUGAGGAUCACCCAUGU [!0.I]
**A:** MET

**Q:** Tell me whether apparent KD of MS2 coat protein is at least 0.03 µM here: UUCUGGUCCCGUGAUACCAGAGACAUGAGGAUCACCCAUGUACAUGAGGAUCACCCAUGUUUCCCUUGGCAGCACUGCAGUGAGC [Exclusion Theophylline B GF 15]
**A:** MET

**Q:** Tell me whether apparent KD of MS2 coat protein is at least 0.03 µM here: UUAUUUAUAAUGGAUACCAGUUUAAUGGCCGCAAAUCCUGACAUGAGGAUCACCCAUGUAAGCCCUUGGCAGCUGUUAUGGGUUU [XTheo B #24]
**A:** MET

**Q:** Tell me whether apparent KD of MS2 coat protein is at least 0.03 µM here: UUGACAUGAGGAUCACCCAUGUAAACUGAAGGAGCGUCGAAAAUGACAGGUAGGUCGCAGAAUAAUAAUGGUGAUCGUAAAUAUU [#12 Exclusion - Arginine A]
**A:** MET

**Q:** Tell me whether apparent KD of MS2 coat protein is at least 0.03 µM here: ACAUGAGGAUCACCCAUGUACAUGAGGGAAGGAGCGGUACAUGUGCCAGGUAGGUCGCCCAACAGCAUCAGCCAUGUACAUCAGC [ppsmullin]
**A:** MET

**Q:** Tell me whether apparent KD of MS2 coat protein is at least 0.03 µM here: GGUCUGUGGAGCGAUACCAGCUUGAGUGUACUGGCCAGGUACAUGAGGAUCACCCAUGUAAGCCCUUGGCAGCGCUCCAGAGACC [#1 Exclusion - Theophylline B Attempt #17 (HarryS)]
**A:** NOT MET

**Q:** Tell me whether apparent KD of MS2 coat protein is at least 0.03 µM here: GCCUAGCAGCGAAGGAGCGAGGUAACUUAAUAAAUAAAUACAAGAGGAUCACCCUUGUUUCCUCAGGUAGGUCGCGCUGCUAGGC [SSAB Alternative Aptamer #2 NP+V+V2]
**A:** NOT MET

**Q:** Tell me whether apparent KD of MS2 coat protein is at least 0.03 µM here: GCAUCCUAGUCGGCCGCCACUGCGGAUCCGGUUCUAGAUCCUUAACAUGAGGAUCACCCAUGUAGCAGGACCGGGACUAGGAUGC [(Trp1)-(TM)''-(TM)'-(Ms2)-(Trp2)_Design2]
**A:** MET

**Q:** Tell me whether apparent KD of MS2 coat protein is at least 0.03 µM here: AAUAACAUGAGGAUCACCCAUGUAAGUAAACGAGGACCGGUACGGCCGCCACUCGAAUAAAUAAAGUACCGGUAAGAUCCAGGGA [Default title]
**A:** NOT MET

**Q:** Tell me whether apparent KD of MS2 coat protein is at least 0.03 µM here: CAACAAGUAACUGAUACCAGUGUACUGACAUGAGGAUCACCCAUGUUGGGUUUUGUUGUACACCCUUGGCAGCAGAAUCUUGUUG [AstrosExyTheB#21]
**A:** MET

**Q:** Tell me whether apparent KD of MS2 coat protein is at least 0.03 µM here: AUAUGAUCAUAUGAUACCAGAAAUGGUAUUCCUUUGUUUCUUACAUGAGGAUCACCCAUGUUCCCUUGGCAGCAUAUGAUCAUAU [ETHB #2]
**A:** MET

**Q:** Tell me whether apparent KD of MS2 coat protein is at least 0.03 µM here: GGUAUGUAUUCGGAAACGAAUGCAUACCAACGAGGACCGGUACGGCCGCCACUCGGCGGCGAUCAACAUGAGGAUCACCCAUGUA [Ex Tryptophan A 3]
**A:** NOT MET

**Q:** Tell me whether apparent KD of MS2 coat protein is at least 0.03 µM here: AAACAUGAGGAUCACCCAUGUUGAGGAUCACGAGGACCGGUACGGCCGCCACUCGACAUGAGGAUCACCCAUGUGAGGAUCACCC [Same State - Tryptophan A #1]
**A:** MET
